Target: T1, Cynomolgus TNFR2-His (Sino 90102-C08H) (cynomolgus monkey, UniProt A0A2K5VET2 132-366)
T1 construct: Bought protein; also called cynomolgus monkey TNFR2; recombinant cynomolgus monkey TNFR2 protein; not shown: His tag
T1 sequence: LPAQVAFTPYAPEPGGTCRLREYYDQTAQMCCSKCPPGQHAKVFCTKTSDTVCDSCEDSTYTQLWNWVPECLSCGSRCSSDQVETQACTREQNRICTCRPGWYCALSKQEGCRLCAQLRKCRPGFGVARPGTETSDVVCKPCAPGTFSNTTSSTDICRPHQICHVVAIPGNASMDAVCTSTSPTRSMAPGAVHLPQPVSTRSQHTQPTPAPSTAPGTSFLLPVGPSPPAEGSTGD
Assay: SPR (Biacore T200), antibody captured on Protein A chip
// values below are reported koff
Answer in s⁻¹, number only, no unit symbol.

- BINDER: "001-Hu2 (antibody, V domains shown, Humanized form of #001; also called VH2 + VL2) VH: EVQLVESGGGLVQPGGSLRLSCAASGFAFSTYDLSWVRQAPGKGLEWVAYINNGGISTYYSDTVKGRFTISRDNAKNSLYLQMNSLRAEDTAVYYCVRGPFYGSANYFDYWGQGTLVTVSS VL: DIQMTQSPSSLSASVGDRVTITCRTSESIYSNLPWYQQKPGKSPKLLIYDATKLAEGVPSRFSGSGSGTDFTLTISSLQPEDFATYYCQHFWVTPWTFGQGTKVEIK"
  UNIT_INFO: "s⁻¹"
  koff: 0.000164
- BINDER: "224-Hu5 (antibody, V domains shown, Humanized form of #224; also called VH9 + VL9) VH: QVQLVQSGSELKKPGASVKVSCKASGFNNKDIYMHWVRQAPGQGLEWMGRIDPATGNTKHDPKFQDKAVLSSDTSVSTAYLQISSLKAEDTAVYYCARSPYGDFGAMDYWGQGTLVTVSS VL: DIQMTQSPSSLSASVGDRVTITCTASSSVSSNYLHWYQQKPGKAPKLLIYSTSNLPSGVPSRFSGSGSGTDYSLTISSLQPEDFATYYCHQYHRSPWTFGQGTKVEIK"
  UNIT_INFO: "s⁻¹"
  koff: 0.000828

// next item, koff requested
Qu. Tell me measured koff for 224-Hu2 (antibody, V domains shown, Humanized form of #224; also called VH9 + VL7) VH: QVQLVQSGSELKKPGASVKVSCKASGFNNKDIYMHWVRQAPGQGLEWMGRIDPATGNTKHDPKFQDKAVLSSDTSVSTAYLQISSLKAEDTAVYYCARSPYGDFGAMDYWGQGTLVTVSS VL: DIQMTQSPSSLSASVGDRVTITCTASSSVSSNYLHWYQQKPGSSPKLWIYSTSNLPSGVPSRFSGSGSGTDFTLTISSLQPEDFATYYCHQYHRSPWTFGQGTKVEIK please.
Ans. 0.000835
